This collection of values is drawn from the supplement of paper PMC7411054.

Test system: A549-ACTB-RAB5A
method notes: phenotypically active (imaging signature differs from DMSO and reproducible) at any of 0.3-9 uM (binary (1 = active, 0 = inactive)); higher = active
recorded conditions: treatment time: 24 h
Respond with a class label; see YES = active, NO = inactive

Would you please look over these solved cases?
line notation	group
COc1cc(O)cc(O)c1C(=O)/C=C/c1ccccc1	YES
CNNCc1ccc(C(=O)NC(C)C)cc1	NO
Cc1cccc(-c2n[nH]cc2-c2ccc(F)c(-c3cnn(CCO)c3)c2)n1	YES
CC(=C/[C@@H](C)C(=O)c1ccc(N(C)C)cc1)/C=C/C(=O)NO	YES

Answer briefly: the call reported for `Cc1cc(C)c(C)c(S(=O)(=O)Nc2ccc(N3CC[C@H](C(=O)O)C3)c3ccccc23)c1C` in this assay.
NO

Answer briefly: the call reported for `O=[N+]([O-])c1cc(Cl)ccc1S(=O)(=O)c1ccccc1` in this assay.
NO

----------
Tested on: A549-GM130-SQSTM1
method notes: phenotypically active (imaging signature differs from DMSO and reproducible) at any of 0.3-9 uM (binary (1 = active, 0 = inactive)); higher = active
recorded conditions: treatment time: 24 h
Respond with a class label; see 1 (active), -1 (inactive)

Would you please look over these solved cases?
compound	group
Cc1noc(C)c1-c1ccc2c(c1)nc(CCc1ccc(OCCCN(C)C)cc1)n2CCN1CCOCC1	1
CC1(C)O[C@@H]2C[C@H]3[C@@H]4C[C@H](F)C5=CC(=O)CC[C@]5(C)[C@H]4[C@@H](O)C[C@]3(C)[C@]2(C(=O)CO)O1 [flurandrenolide]	1
O=C(Nc1cccc(Br)c1)c1cccc(S(=O)(=O)N2CCCCCC2)c1	-1

Note: attention shifts to another entry.
Answer briefly: the call reported for Cc1ccccc1C(OCCN(C)C)c1ccccc1 (centres undefined) in this assay.
-1

----------
Attribute: phenotypically active
Test system: WPMY1-TP53BP1-CLTA
method notes: phenotypically active (imaging signature differs from DMSO and reproducible) at any of 0.3-9 uM (binary (1 = active, 0 = inactive)); higher = active
recorded conditions: treatment time: 24 h
Lab note: jot the number down without any unit.

molecule	experimental system	phenotypically active
CC(C)Cn1c(=O)n(C)c(=O)c2[nH]cnc21	WPMY1-TP53BP1-CLTA	0
Cc1c2oc3c(C)ccc(C(=O)NC4C(=O)NC(C(C)C)C(=O)N5CCCC5C(=O)N(C)CC(=O)N(C)C(C(C)C)C(=O)OC4C)c3nc-2c(C(=O)NC2C(=O)NC(C(C)C)C(=O)N3CCCC3C(=O)N(C)CC(=O)N(C)C(C(C)C)C(=O)OC2C)c(N)c1=O (stereo not drawn) [Actinomycin D]	WPMY1-TP53BP1-CLTA	1
COc1ccc(-c2cc3c(C)nc(N)nc3n([C@H]3CC[C@H](OCCO)CC3)c2=O)cn1	WPMY1-TP53BP1-CLTA	1

Attention now shifts to the item below.
Reported phenotypically active, molecule `O=C(Nc1cccc(Br)c1)c1cccc(S(=O)(=O)N2CCCCCC2)c1` : ____
0

----------
Tested on: A549-TUBA1B-RELA
method notes: phenotypically active (imaging signature differs from DMSO and reproducible) at any of 0.3-9 uM (binary (1 = active, 0 = inactive)); higher = active
recorded conditions: treatment time: 24 h
Structures can show the parent of a compound that is named as a salt.
Respond with a class label; see TRUE = active, FALSE = inactive

compound	experimental system	group
C[N+](C)(CCCCCC[N+](C)(C)CCCN1C(=O)c2ccccc2C1=O)CCCN1C(=O)c2ccccc2C1=O [W-84 dibromide]	A549-TUBA1B-RELA	FALSE

Answer briefly: the call reported for `COc1cc(C)c(/C=C/C(C)=C/C=C/C(C)=C/C(=O)O)c(C)c1C` in this assay.
FALSE

Answer briefly: the call reported for `CCc1cccc(CC)c1NC(=O)N1Cc2[nH]nc(NC(=O)c3ccc(N4CCN(C)CC4)cc3)c2C1` in this assay.
TRUE

Answer briefly: the call reported for `O=C(O)c1c(Sc2ccccc2)c2cc(Cl)ccc2n1Cc1ccc(Cl)cc1` in this assay.
FALSE

Answer briefly: the call reported for OCCOCCN1CCN(C2=Nc3ccccc3Sc3ccccc32)CC1 [Quetiapine hemifumarate] in this assay.
FALSE

Answer briefly: the call reported for `CCCCC1=NC2(CCCC2)C(=O)N1Cc1ccc(-c2ccccc2-c2nnn[nH]2)cc1` in this assay.
FALSE

Answer briefly: the call reported for `CCOC(=O)c1c2c3c(cccc3[nH]c1=O)C(=O)c1ccccc1-2` in this assay.
FALSE

Answer briefly: the call reported for `Cc1noc(C)c1Cn1cc(C#N)c2cc(Oc3ccc(NC(=O)[C@@H]4CCCN4)cc3)ccc21` in this assay.
TRUE

Answer briefly: the call reported for O=C(c1cccc(Br)c1)N1CCC(N2CCCC2)CC1 [UNC 926 hydrochloride] in this assay.
FALSE
